src = the supplement of paper PMC10567573

experiment: protein stability index of a GFP-peptide fusion (GPS, HEK-293T) (PSI 1-6); higher = more stable; conditions: treatment: MLN4924 1 uM, 8 h; c terminus: a fixed tail appended;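 note: 24-mer peptide tiles fused after GFP, lentivirally expressed, FACS-sorted into six equal bins by GFP/DsRed ratio, decoded by Illumina sequencing, PSI is the read-weighted mean bin number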
Binary classification by protein stability index, with 3 as an inclusive lower bound for YES; all other cases are NO.

[
  {
    "Query sequence": "FLTFDKQVLRFYAIWDDTDSMYGE [EFHC1]",
    "Class name": "NO"
  },
  {
    "Query sequence": "VDAGAEPGRSRMISQEEFARQLQL [LPCAT4]",
    "Class name": "YES"
  },
  {
    "Query sequence": "KAQLLEQAQGQLRELLDRAMREAI [SOAT2]",
    "Class name": "NO"
  },
  {
    "Query sequence": "KYKKAVGLKLKQEKKEAYLKLKQG [WDR88]",
    "Class name": "YES"
  },
  {
    "Query sequence": "IDEYCVQQLKEFDGKSLVSVTKEG [HSP90AB1]",
    "Class name": "YES"
  },
  {
    "Query sequence": "LKQNFSKSWHDMQTTTAYKKTHET [TPD52L1]",
    "Class name": "YES"
  },
  {
    "Query sequence": "EASRLNIERMKQIYQQLSRYRGLG [CRY1]",
    "Class name": "NO"
  },
  {
    "Query sequence": "SSSQKEESPSTLQVLPDSESLPRS [MAGEA10]",
    "Class name": "YES"
  }
]

Task: Confirm if protein stability index reported for the sequence RLRKCYEVGMVKCGSRRERCGYRL [ESR2] is 3 or above.
Output: NO

Task: Textbook exercise: given the entry TRDLAGLRQFFKQLPSPPFLPAAG [CEBPD] , state whether its protein stability index is greater than or equal to 3.
Output: NO

Task: Evaluate AIPTKKSLPSPSSSGHQNRRFSSE [FBF1] : protein stability index at minimum 3?
Output: YES

Task: Is the recorded value of protein stability index equal to or greater than 3 for this sequence? DQQNPTLGETPENSNLEEPLNPKP [ZNF449]
Output: YES

Task: # check: protein stability index of KERPLVIGHFNTASGVGFILGPVV [MFSD9] is greater than or equal to 3
Output: NO

Task: Is reported protein stability index greater than or equal to 3 here: ERDTLSIRESRLFGAVVRWAEAEC [BTBD1]
Output: YES

Task: In plain terms: is recorded protein stability index at least 3 for VSTRLTVLREDQIPRGFPTIDMGP [PTPRD] ?
Output: NO

Task: Reported protein stability index at or above 3? PNSTKNQSLPKASPVTTSPTAATT [LCOR]
Output: YES

Task: Decide: protein stability index of KKKKIGFYFEVCGMMVESVNAKTL [PCDHGA10] >= 3?
Output: NO

Task: hey, is protein stability index for this one >= 3? NSAAHLFGYRPYDKNISPRENILV [SCD]
Output: NO

Task: # bool: protein stability index of SRARSASSPRGMVRVCDLLLKKKP [ANKRD17] >= 3
Output: YES

Task: Does AAEVGTGQYATTKGISQTNLITTV [EPB41L3] have a reported protein stability index of at least 3?
Output: YES

Task: State whether the measured protein stability index reaches 3, counting equality as reaching it, for GRTLIGFLRSIDQFANLVLHQTVE [LSM1]
Output: NO

Task: Please tell me: is the sequence EEAVPEEEGPTVVLNPHPSLGYKE [CHGA] at or over 3 in terms of protein stability index?
Output: YES
